Test: Study KAR5585-101 Part 1 (SAD): plasma pharmacokinetics after a single oral dose of KAR5585, fasting and fed (incl. dose proportionality and food effect)
Details: human, plasma, po, 1200 mg, AUC0-∞, KAR5417 after 1200 mg KAR5585 single oral, fasted, Cohort 5; Geo. Mean
Recorded Endpoint: AUC(0-inf) (ng·h/mL)
# output: bare number, implied unit ng·h/mL

# lookup: AUC(0-inf) of Nc1nc(O[C@H](c2ccc(Cl)cc2-c2ccccc2)C(F)(F)F)cc(N2CCC3(CC2)CN[C@H](C(=O)O)C3)n1
6880

###

Experiment: Study KAR5585-101 Part 1 (SAD): plasma pharmacokinetics after a single oral dose of KAR5585, fasting and fed (incl. dose proportionality and food effect)
Settings: human, plasma, po, 700 mg, Cmax, KAR5417 after 700 mg KAR5585 single oral, fasted, Cohort 4; Geo. Mean
Recorded Endpoint: Cmax

# lookup: Cmax of Nc1nc(O[C@H](c2ccc(Cl)cc2-c2ccccc2)C(F)(F)F)cc(N2CCC3(CC2)CN[C@H](C(=O)O)C3)n1 [KAR5417]
544 ng/mL

###

Experiment: Study KAR5585-101 Part 1 (SAD): plasma pharmacokinetics after a single oral dose of KAR5585, fasting and fed (incl. dose proportionality and food effect)
Conditions: human, plasma, po, 100 mg, Vz/F, 100 mg KAR5585 single oral, fasted, Cohort 1; Mean
Recorded Endpoint: Vd/F (L)
# output: bare number, implied unit L

# lookup: Vd/F of CCOC(=O)[C@@H]1CC2(CCN(c3cc(O[C@H](c4ccc(Cl)cc4-c4ccccc4)C(F)(F)F)nc(N)n3)CC2)CN1
5680

###

Test: Study KAR5585-101 Part 1 (SAD): plasma pharmacokinetics after a single oral dose of KAR5585, fasting and fed (incl. dose proportionality and food effect)
Conditions: human, plasma, po, 2000 mg, Cmax, 2000 mg KAR5585 single oral, fasted, Cohort 6; Mean
Recorded Endpoint: Cmax (ng/mL)
# output: bare number, implied unit ng/mL

# lookup: Cmax of CCOC(=O)[C@@H]1CC2(CCN(c3cc(O[C@H](c4ccc(Cl)cc4-c4ccccc4)C(F)(F)F)nc(N)n3)CC2)CN1 [KAR5585]
104

###

Experiment: Study KAR5585-101 Part 1 (SAD): plasma pharmacokinetics after a single oral dose of KAR5585, fasting and fed (incl. dose proportionality and food effect)
Conditions: human, plasma, po, 400 mg, AUC0-tau, 400 mg KAR5585 single oral, fed, Cohort 3B; Mean
Recorded Endpoint: AUC
I'd appreciate it if you included the unit after the number.

# lookup: AUC of CCOC(=O)[C@@H]1CC2(CCN(c3cc(O[C@H](c4ccc(Cl)cc4-c4ccccc4)C(F)(F)F)nc(N)n3)CC2)CN1
868 ng·h/mL

###

Experiment: Study KAR5585-101 Part 1 (SAD): plasma pharmacokinetics after a single oral dose of KAR5585, fasting and fed (incl. dose proportionality and food effect)
Details: human, plasma, po, 1200 mg, AUC0-∞, KAR5417 after 1200 mg KAR5585 single oral, fasted, Cohort 5; Mean
Recorded Endpoint: AUC(0-inf) (ng·h/mL)
# output: bare number, implied unit ng·h/mL

# lookup: AUC(0-inf) of Nc1nc(O[C@H](c2ccc(Cl)cc2-c2ccccc2)C(F)(F)F)cc(N2CCC3(CC2)CN[C@H](C(=O)O)C3)n1
7970

###

Test: clinical
Conditions: human, plasma, oral, 100 mg/dose
Recorded Endpoint: Tmax

# lookup: Tmax of CCOC(=O)[C@@H]1CC2(CCN(c3cc(O[C@H](c4ccc(Cl)cc4-c4ccccc4)C(F)(F)F)nc(N)n3)CC2)CN1
1 h

###

Assay: Study KAR5585-101 Part 1 (SAD): plasma pharmacokinetics after a single oral dose of KAR5585, fasting and fed (incl. dose proportionality and food effect)
Conditions: human, plasma, po, 400 mg, C12, 400 mg KAR5585 single oral, fed, Cohort 3B; Geo. Mean
Recorded Endpoint: concentration at 12 h (ng/mL)
# output: bare number, implied unit ng/mL

# lookup: concentration at 12 h of CCOC(=O)[C@@H]1CC2(CCN(c3cc(O[C@H](c4ccc(Cl)cc4-c4ccccc4)C(F)(F)F)nc(N)n3)CC2)CN1
19.7

###

Experiment: Study KAR5585-101 Part 1 (SAD): plasma pharmacokinetics after a single oral dose of KAR5585, fasting and fed (incl. dose proportionality and food effect)
Conditions: human, plasma, po, 400 mg, t1/2, KAR5417 after 400 mg KAR5585 single oral, fed, Cohort 3B; Geo. Mean
Recorded Endpoint: half-life (h)
# output: bare number, implied unit h

# lookup: half-life of Nc1nc(O[C@H](c2ccc(Cl)cc2-c2ccccc2)C(F)(F)F)cc(N2CCC3(CC2)CN[C@H](C(=O)O)C3)n1
19.8

###

Assay: Study KAR5585-101 Part 1 (SAD): plasma pharmacokinetics after a single oral dose of KAR5585, fasting and fed (incl. dose proportionality and food effect)
Details: human, plasma, po, 700 mg, AUC0-24, KAR5417 after 700 mg KAR5585 single oral, fasted, Cohort 4; Mean
Recorded Endpoint: AUC(0-t) (ng·h/mL)
# output: bare number, implied unit ng·h/mL

# lookup: AUC(0-t) of Nc1nc(O[C@H](c2ccc(Cl)cc2-c2ccccc2)C(F)(F)F)cc(N2CCC3(CC2)CN[C@H](C(=O)O)C3)n1 [KAR5417]
5310

###

Assay: clinical
Details: human, plasma, oral, 100 mg
Recorded Endpoint: Cmax at 1 day
I'd appreciate it if you included the unit after the number.

# lookup: Cmax at 1 day of Nc1nc(O[C@H](c2ccc(Cl)cc2-c2ccccc2)C(F)(F)F)cc(N2CCC3(CC2)CN[C@H](C(=O)O)C3)n1
121 ng/mL

# lookup: Cmax at 1 day of CCOC(=O)[C@@H]1CC2(CCN(c3cc(O[C@H](c4ccc(Cl)cc4-c4ccccc4)C(F)(F)F)nc(N)n3)CC2)CN1
16.7 ng/mL

###

Assay: Part 1 (SAD): urine pharmacokinetics (amount excreted, renal clearance) after a single oral dose of KAR5585
Assay type: in vivo, human
Details: human, urine and plasma, po, 700 mg, KAR5417; 700 mg KAR5585 single oral dose; mean; read-out: CLR (converted)
Recorded Endpoint: CL renal (mL/min)
# output: bare number, implied unit mL/min

# lookup: CL renal of Nc1nc(O[C@H](c2ccc(Cl)cc2-c2ccccc2)C(F)(F)F)cc(N2CCC3(CC2)CN[C@H](C(=O)O)C3)n1
3.18

###

Assay: Study KAR5585-101 Part 1 (SAD): plasma pharmacokinetics after a single oral dose of KAR5585, fasting and fed (incl. dose proportionality and food effect)
Settings: human, plasma, po, 400 mg, AUC0-inf, Geometric Mean, Cohort 3B (Fed), 400 mg KAR5585 single oral dose, fed
Listed compounds paired with reported AUC(0-inf)
# output: bare number, implied unit µg·h/mL

>  <Smiles String>
CCOC(=O)[C@@H]1CC2(CCN(c3cc(O[C@H](c4ccc(Cl)cc4-c4ccccc4)C(F)(F)F)nc(N)n3)CC2)CN1

>  <Unit Text>
µg·h/mL

>  <AUC(0-inf)>
0.903

$$$$

Please find the next compound below.
# lookup: AUC(0-inf) of Nc1nc(O[C@H](c2ccc(Cl)cc2-c2ccccc2)C(F)(F)F)cc(N2CCC3(CC2)CN[C@H](C(=O)O)C3)n1
6.63

###

Experiment: Study KAR5585-101 Part 1 (SAD): plasma pharmacokinetics after a single oral dose of KAR5585, fasting and fed (incl. dose proportionality and food effect)
Settings: human, plasma, po, 1200 mg, Cmax, KAR5417 after 1200 mg KAR5585 single oral, fasted, Cohort 5; Mean
Recorded Endpoint: Cmax (ng/mL)
# output: bare number, implied unit ng/mL

# lookup: Cmax of Nc1nc(O[C@H](c2ccc(Cl)cc2-c2ccccc2)C(F)(F)F)cc(N2CCC3(CC2)CN[C@H](C(=O)O)C3)n1
896

###

Assay: Study KAR5585-101 Part 1 (SAD): plasma pharmacokinetics after a single oral dose of KAR5585, fasting and fed (incl. dose proportionality and food effect)
Conditions: human, plasma, po, 200 mg, AUC0-∞, 200 mg KAR5585 single oral, fasted, Cohort 2; Geo. Mean
Recorded Endpoint: AUC(0-inf) (ng·h/mL)
# output: bare number, implied unit ng·h/mL

# lookup: AUC(0-inf) of CCOC(=O)[C@@H]1CC2(CCN(c3cc(O[C@H](c4ccc(Cl)cc4-c4ccccc4)C(F)(F)F)nc(N)n3)CC2)CN1
95.3

###

Assay: Study KAR5585-101 Part 1 (SAD): plasma pharmacokinetics after a single oral dose of KAR5585, fasting and fed (incl. dose proportionality and food effect)
Conditions: human, plasma, po, 700 mg, Cmax, 700 mg KAR5585 single oral, fasted, Cohort 4; Mean
Recorded Endpoint: Cmax
I'd appreciate it if you included the unit after the number.

# lookup: Cmax of CCOC(=O)[C@@H]1CC2(CCN(c3cc(O[C@H](c4ccc(Cl)cc4-c4ccccc4)C(F)(F)F)nc(N)n3)CC2)CN1
0.0994 µg/mL
